Exercise: for every item that follows, state its recorded NCI-60 screening: Log(RedIndex).
- Test system: NCI-60 standardized human tumor cell line panel
- METHOD DESCRIPTION: cells
- Assay type: cell-based
- CONDITION: cell line SK-MEL-28 (ME:SK-MEL-28); TMI sheet
Answers are plain numbers.

[
  {
    "COMPOUND": "COc1cc2cc(C(=O)N3CC(CCl)c4c3cc(OC(=O)N3CCN(C)C5CSSCC53)c3ccccc43)[nH]c2c(OC)c1OC (mixture of isomers) [Me-SS66T-CBI-TMI]",
    "ASSAY SYSTEM": "NCI-60 standardized human tumor cell line panel",
    "EXPERIMENTAL RESULT": 2.39
  }
]

List reported NCI-60 screening: Log(RedIndex) for each of these compounds:
1. COc1cc2cc(C(=O)N3CC(CCl)c4c3cc(OC(=O)N3CCN(C)C5CSSCC53)c3ccccc43)[nH]c2c(OC)c1OC (mixture of isomers) [Me-SS66C-CBI-TMI]
2. COc1cc2cc(C(=O)N3C[C@@H](CCl)c4c3cc(OC(=O)N3CCN(C(=O)CCC(=O)N5CCN(C)CC5)[C@H]5CSSC[C@H]53)c3ccccc43)[nH]c2c(OC)c1OC [P-SS66C-CBI-TMI]

Result:
1. 1.14
2. 1.35

Query: Please report NCI-60 screening: Log(RedIndex) for the following compound: COc1cc2cc(C(=O)N3C[C@@H](CCl)c4c3cc(OC(=O)N(CCC(=O)N3CCN(C)CC3)[C@H]3CCSSC3)c3ccccc43)[nH]c2c(OC)c1OC [P-SS60-CBI-TMI]
Result: 1.09
